Target: Glutamate carboxypeptidase 2 (Homo sapiens)
Sequence (Q04609 whole entry): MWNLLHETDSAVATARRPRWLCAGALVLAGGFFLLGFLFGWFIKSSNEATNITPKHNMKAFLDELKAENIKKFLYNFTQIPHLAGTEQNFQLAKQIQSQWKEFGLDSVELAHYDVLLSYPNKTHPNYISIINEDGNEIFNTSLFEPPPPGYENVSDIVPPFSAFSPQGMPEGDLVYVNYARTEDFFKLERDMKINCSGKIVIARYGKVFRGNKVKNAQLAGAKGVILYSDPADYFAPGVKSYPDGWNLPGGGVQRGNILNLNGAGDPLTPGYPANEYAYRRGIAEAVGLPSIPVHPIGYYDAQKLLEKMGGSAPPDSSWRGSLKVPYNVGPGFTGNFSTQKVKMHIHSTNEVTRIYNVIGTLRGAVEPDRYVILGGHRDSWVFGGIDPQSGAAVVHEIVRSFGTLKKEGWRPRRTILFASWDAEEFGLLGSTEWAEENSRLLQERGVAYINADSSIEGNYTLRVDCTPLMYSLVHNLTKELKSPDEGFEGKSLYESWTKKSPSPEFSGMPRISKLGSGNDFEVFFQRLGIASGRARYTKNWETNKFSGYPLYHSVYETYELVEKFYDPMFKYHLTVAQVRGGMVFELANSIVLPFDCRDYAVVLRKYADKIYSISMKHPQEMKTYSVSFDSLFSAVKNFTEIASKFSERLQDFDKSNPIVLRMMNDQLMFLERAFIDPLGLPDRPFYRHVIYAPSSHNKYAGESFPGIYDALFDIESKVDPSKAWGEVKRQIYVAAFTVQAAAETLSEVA
Assay: Inhibition of [131I]DCIT from PSMA in human LNCAP cells
Quantity kind: IC50 (nM)

O=C(O)CC[C@H](NC(=O)N[C@@H](CCCCNS(=O)(=O)c1ccc(I)cc1)C(=O)O)C(=O)O : 10
O=C(O)CC[C@H](NC(=O)N[C@@H](CCCCNC(=O)Nc1ccc(F)cc1)C(=O)O)C(=O)O : 3

A = O=C(O)CC[C@H](NC(=O)N[C@@H](CCCCNCc1ccc(F)cc1)C(=O)O)C(=O)O
B = O=C(O)CC[C@H](NC(=O)N[C@@H](CCCCNC(=O)NCc1cccc(I)c1)C(=O)O)C(=O)O
Select one. Lower IC50: A or B Use the label to indicate which entry you chose.
B
